Assay: Toxicity liver stage against HepG2, at 10uM
Assay type: cell-based
Set-up: test concentration 10 uM, cell line HepG2-A16-CD81EGFP
Details: human, HepG2-A16-CD81EGFP cells; read-out: INHIBITION
parameter: cytotoxicity at 10 µM

The molecule Cc1ccc(N2CCCN(C(=O)CC3C=CCC3)CC2)nn1 (stereo unspecified) showed cytotoxicity at 10 µM equal to -9.2%

// switching to the query molecule
The molecule Cc1nnc(C(C)N2CCCN(Cc3ccc(C#N)cc3)CC2)o1 (stereo unspecified) showed cytotoxicity at 10 µM equal to -11.1%

* * *

Test: Toxicity liver stage against HepG2, at 10uM
Assay type: cell-based
Set-up: test concentration 10 uM, cell line HepG2-A16-CD81EGFP
Conditions: human, HepG2-A16-CD81EGFP cells; read-out: INHIBITION
Readings of cytotoxicity at 10 µM for the listed compounds
Use % as the unit, but write only the number.

The compound c1ccc2oc(N3CCC(c4nncn4C4CC4)CC3)nc2c1 showed cytotoxicity at 10 µM equal to 12.7

The compound COc1cccc(-c2nccc(C3CCCN3C)n2)c1 (stereo unspecified) showed cytotoxicity at 10 µM equal to 9.27

The compound CCc1ccc(CN2CCCn3c(nc(Cn4ccnc4)cc3=O)C2)o1 showed cytotoxicity at 10 µM equal to 4.29

The compound O=C(Cc1noc(C(=O)NCC2CC2)n1)Nc1cccc(C(F)(F)F)c1 showed cytotoxicity at 10 µM equal to 8.13

New cases:
The compound O=C(c1ccsc1)N1CCOC2(CCN(Cc3cccnc3)CC2)C1 showed cytotoxicity at 10 µM equal to -3.12

The compound CC(=O)NCCCNC(=O)N1CCN(c2cc(F)ccc2F)CC1 showed cytotoxicity at 10 µM equal to -5.14

The compound Cc1cc(CN(C)C(=O)c2ccc(N(C)C)nc2)no1 showed cytotoxicity at 10 µM equal to -5.4

* * *

Experiment: Toxicity liver stage against HepG2, at 10uM
Type: cell-based
Set-up: test concentration 10 uM, cell line HepG2-A16-CD81EGFP
Settings: human, HepG2-A16-CD81EGFP cells; read-out: INHIBITION
parameter: cytotoxicity at 10 µM (%)
Use % as the unit, but write only the number.

Take a look at these entries with their results.
The compound Cc1cnn(CC2CCCN2CC(=O)Nc2cc(C)no2)c1 (stereo unspecified) showed cytotoxicity at 10 µM equal to 2.27

The compound CS(=O)(=O)NCc1cn2c(n1)CN(Cc1ccoc1)CC2 showed cytotoxicity at 10 µM equal to 7.92

The compound Cc1nc2n(n1)CC(Nc1nc(C(F)(F)F)nc3ccccc13)CC2 (stereo unspecified) showed cytotoxicity at 10 µM equal to -0.978

The compound CCc1nc(C2CCCN(C(=O)c3cccnc3O)C2)no1 (stereo unspecified) showed cytotoxicity at 10 µM equal to -3.54

The compound O=C(c1cnc(-c2cnccn2)s1)N1CCCC(n2cccn2)C1 (stereo unspecified) showed cytotoxicity at 10 µM equal to -9.04

// switching to the query compound
The compound CCCN(c1ccccc1C(=O)O)S(=O)(=O)c1cccc2cccnc12 showed cytotoxicity at 10 µM equal to -3.89

* * *

Experiment: Toxicity liver stage against HepG2, at 10uM
Format: cell-based
Parameters: test concentration 10 uM, cell line HepG2-A16-CD81EGFP
Settings: human, HepG2-A16-CD81EGFP cells; read-out: INHIBITION
Note to self: cytotoxicity at 10 µM under -10% means Yes, ties and anything higher get No.

Please review the following examples before continuing.
[in] Check if cytotoxicity at 10 µM falls below -10% for CC(C)(C)c1cc(=O)n2c(n1)SCC(C(=O)NCc1ccco1)C2 (stereo unspecified) .
[out] Yes

[in] Check if cytotoxicity at 10 µM falls below -10% for CNC(=O)[C@H]1CO[C@H]2CCN(c3ncc(F)cn3)C[C@H]2C1 .
[out] No

[in] Check if cytotoxicity at 10 µM falls below -10% for CCn1ncnc1C(C)NC(=O)C1CCN(Cc2ccco2)CC1 (stereo unspecified) .
[out] Yes

[in] Check if cytotoxicity at 10 µM falls below -10% for CCN(Cc1ccccc1Cl)Cn1nc(C)c2c(C)onc2c1=O .
[out] No

[in] Check if cytotoxicity at 10 µM falls below -10% for CN(C)C1CCCN(C(=O)NCCC(=O)N2CCCCCC2)C1 (stereo unspecified) .
[out] No

[in] Check if cytotoxicity at 10 µM falls below -10% for COCCn1cc(NC(=O)NC(C)Cc2c(F)cccc2F)cn1 (stereo unspecified) .
[out] No

New cases:
[in] Check if cytotoxicity at 10 µM falls below -10% for Cc1ccc(CN2Cc3nnn(C)c3C(COCc3ccccn3)C2)s1 (stereo unspecified) .
[out] No

[in] Check if cytotoxicity at 10 µM falls below -10% for O=C1N(Cc2ccccc2)C[C@H]2CN(Cc3ccccc3Cl)CCN12 .
[out] No

[in] Check if cytotoxicity at 10 µM falls below -10% for Cc1cc(CNc2ccc(CC(=O)N(C)c3ccccc3)cc2)no1 .
[out] Yes

[in] Check if cytotoxicity at 10 µM falls below -10% for Cc1cc(CN(C)C(=O)NC2CCN(Cc3ccccc3)C2)no1 (stereo unspecified) .
[out] No

[in] Check if cytotoxicity at 10 µM falls below -10% for COCCN(Cc1cnn(C)c1)c1nc(C)nc2sccc12 .
[out] Yes

[in] Check if cytotoxicity at 10 µM falls below -10% for CCOCCN1CCO[C@H]2[C@H](OCc3ccccn3)CC[C@@H]21 .
[out] Yes

[in] Check if cytotoxicity at 10 µM falls below -10% for CO[C@@H]1CCC[C@@H](NC(=O)c2cccc(F)c2)[C@H]1O .
[out] No

[in] Check if cytotoxicity at 10 µM falls below -10% for COc1ccc2[nH]c(=O)c(CN(C)CCN3CCCC3)cc2c1 .
[out] No

[in] Check if cytotoxicity at 10 µM falls below -10% for O=C(CC1CSc2nccc(=O)n21)NCc1cc(-c2ccco2)on1 (stereo unspecified) .
[out] Yes

[in] Check if cytotoxicity at 10 µM falls below -10% for CN1CCN(CC2(O)CCN(C(=O)CCc3ccccc3F)C2)CC1 (stereo unspecified) .
[out] No

[in] Check if cytotoxicity at 10 µM falls below -10% for CCCN1C[C@@H]2CC[C@H]1CN(Cc1ccc(Cn3cccn3)cc1)C2 .
[out] No

[in] Check if cytotoxicity at 10 µM falls below -10% for O=C(NCC1CC1)[C@H]1C[C@@H]2CCN(Cc3ccc4c(c3)OCO4)C[C@@H]2O1 .
[out] No

[in] Check if cytotoxicity at 10 µM falls below -10% for CN(Cc1ncc[nH]1)S(=O)(=O)c1cccc(C(=O)N2CCOCC2)c1 .
[out] No

[in] Check if cytotoxicity at 10 µM falls below -10% for O=C([C@H]1CCCO1)N1CCC2(CC1)CNCc1ccccc12 .
[out] No

[in] Check if cytotoxicity at 10 µM falls below -10% for COc1ccc(-c2cnc(N(C)C)nc2C2CN(C(C)=O)CCO2)cc1 (stereo unspecified) .
[out] Yes

[in] Check if cytotoxicity at 10 µM falls below -10% for Cc1cc(C(=O)NCCN2CCCc3ccccc32)[nH]n1 .
[out] No

[in] Check if cytotoxicity at 10 µM falls below -10% for COc1ccc(C2CCCN2c2ccc(C#N)cn2)c(OC)c1 (stereo unspecified) .
[out] No

[in] Check if cytotoxicity at 10 µM falls below -10% for CC(NS(=O)(=O)N(C)C(C)C)C(=O)N(C)C (stereo unspecified) .
[out] No

[in] Check if cytotoxicity at 10 µM falls below -10% for c1ccc(-c2ncc(CN3CCCCC3CCn3cccn3)cn2)nc1 (stereo unspecified) .
[out] No

[in] Check if cytotoxicity at 10 µM falls below -10% for Cc1ccc(N2CC[C@@H]3[C@@H]2CCN3C(=O)Cc2ccccc2)nn1 .
[out] Yes

[in] Check if cytotoxicity at 10 µM falls below -10% for CC(=O)N1CCC(C(=O)N2CCC(=Cc3cccc(F)c3)CC2)CC1 .
[out] No

* * *

Readings of cytotoxicity at 10 µM for the listed compounds
Assay: Toxicity liver stage against HepG2, at 10uM
Format: cell-based
Set-up: test concentration 10 uM, cell line HepG2-A16-CD81EGFP
Conditions: human, HepG2-A16-CD81EGFP cells; read-out: INHIBITION
Use % as the unit, but write only the number.

Take a look at these entries with their results.
The compound COCCOc1ccccc1CNCC1COC2(CCCC2)O1 (stereo unspecified) showed cytotoxicity at 10 µM equal to -143

The compound CCOc1ccc(C#N)cc1NC(=O)N1CCC(n2cncn2)CC1 showed cytotoxicity at 10 µM equal to 20.3

The compound CC(SCC(=O)N(C)CC(=O)NC1CC1)c1ccc(F)c(F)c1 (stereo unspecified) showed cytotoxicity at 10 µM equal to -0.369

The compound CC(C)NC(=O)N1CCCC2(CCCCN2)C1 (stereo unspecified) showed cytotoxicity at 10 µM equal to 11.4

The compound CN(C)C[C@@H]1OC[C@H]2CN(Cc3ccoc3)CC[C@H]21 showed cytotoxicity at 10 µM equal to -131

The compound Cc1noc(C)c1CN1C[C@@H]2C[C@@H](C)O[C@@H]2C1 showed cytotoxicity at 10 µM equal to 4.06

The compound C1CC(CN2CCO[C@H]3[C@H](OCC4CC4)CC[C@@H]32)CCO1 showed cytotoxicity at 10 µM equal to -13.3

The compound CCCN(C(=O)c1ccncc1)c1nc2c(s1)CCc1c-2cnn1C showed cytotoxicity at 10 µM equal to -14.6

New cases:
The compound CCOc1ncccc1NC(=O)NC1CCCN(S(C)(=O)=O)C1 (stereo unspecified) showed cytotoxicity at 10 µM equal to -3.62

The compound Cc1c(C(=O)N2CCC2(C)C)nnn1-c1cccc2cccnc12 showed cytotoxicity at 10 µM equal to 4.13

The compound Cc1csc(C2(NCC(O)COC(C)C)CCCC2)n1 (stereo unspecified) showed cytotoxicity at 10 µM equal to 4.53
